tested on: HEK-293T; experiment: Multiplex assay against HEK293T; assay type: toxicity, cell-based; settings: human, 24 h, 1 µM, compound concentration 1 uM, replicate 2
Labelling field: enter 1 (yes) if recorded Population Fragmented Nuclei (%) is less than 10%. Enter 0 (no) if it equals or exceeds that cut-off.

> print(dat)
                                   compound      cat
1  COc1cc2c(Nc3ccc(NC(=O)c4ccccc4)cc3)ncnc2cc1OCCCN1CCOCC1  1 (yes)

INPUT: Hello, is Population Fragmented Nuclei (%) of the following compound strictly smaller than 10%? O=C(O)c1ccc2cc(-c3ccc(O)c(C45CC6CC(CC(C6)C4)C5)c3)ccc2c1
OUTPUT: 1 (yes)

INPUT: Also need CN(C)C/C=C/C(=O)Nc1cc2c(Nc3ccc(F)c(Cl)c3)ncnc2cc1O[C@H]1CCOC1.O=C(O)/C=C\C(=O)O.O=C(O)/C=C\C(=O)O [AFATINIB DIMALEATE] , thanks.
OUTPUT: 0 (no)

INPUT: Also need Cc1cc2c(cc1N1C(=O)c3cccc4c(CCCO)ccc(c34)C1=O)n(C)c(=O)n2C , thanks.
OUTPUT: 1 (yes)

INPUT: Also need CCn1c(-c2nonc2N)nc2cnc(Oc3cccc(NC(=O)c4ccc(OCCN5CCOCC5)cc4)c3)cc21 [GSK-269962A] , thanks.
OUTPUT: 0 (no)

INPUT: Also need CCOc1cc2ncc(C#N)c(Nc3ccc(OCc4cccc(F)c4)c(Cl)c3)c2cc1NC(=O)/C=C/CN(C)C , thanks.
OUTPUT: 0 (no)

INPUT: Also need COc1cc(N2CCC(N(C)C)CC2)ccc1Nc1ncc(Cl)c(Nc2ccccc2P(C)(C)=O)n1 , thanks.
OUTPUT: 0 (no)

INPUT: Also need CN(C)CCOc1ccc(-c2nc(-c3ccncc3)c(-c3ccc4c(c3)CC/C4=N\O)[nH]2)cc1 , thanks.
OUTPUT: 1 (yes)

INPUT: Also need CCOc1cc(N2CCC(O)CC2)ccc1Nc1ncc2c(n1)N(C1CCCC1)CCC(=O)N2C , thanks.
OUTPUT: 0 (no)
